measured on: CDK2/CyclinA2 enzyme (Homo sapiens, UniProt P24941)
protocol notes: In vitro CDK2 inhibitory assay (Kinase-Glo)
experimental setup: deduced from curves over 0.01-10 µM; read-out: IC50 against CDK2
Procedure: To further substantiate the promising results of the docking analyses of pyrans 4d and 4K in the ATP active site of CDK2, their in vitro potencies to inhibit the enzyme activity were evaluated over a concentration range of 0.01−10 µM. CDK-2 inhibition activity of the studied compounds 4d and 4k was evaluated using a commercial CDK2 […] (cat. no.: 79599; BPS Biosciences, San Diego, CA, USA) following the manufacturer’s instructions. […]
Would you kindly list IC50 for each of these molecules?

Give a short answer stating reported IC50 for CCCCOc1c(C(=O)c2c(F)cc(C)cc2F)c[nH]c2nncc1-2 [BMS-265246, reference compound] .
0.036 µM

Give a short answer stating reported IC50 for CC1=C(C(=O)OCc2ccccc2)C(c2ccc(C#N)cc2)C(C#N)=C(N)O1 (stereo not drawn) .
0.214 µM

Give a short answer stating reported IC50 for COc1cc(C2C(C#N)=C(N)OC(C)=C2C(=O)OCc2ccccc2)cc(OC)c1OC (stereo not drawn) .
0.143 µM

====

Test system: B. subtilis (ATCC 6633)
protocol notes: Antibacterial agar diffusion method (inhibition zone)
Type: cell-based
Method: The results for the in vitro antibacterial properties of the synthesized compounds against five Gram-positive and four Gram-negative human-pathogenic strains, which were assessed by both the agar diffusion method (based on inhibition zone (IZ)) and the broth dilution bioassay (for the determination of the half-maximal inhibitory concentration (IC50) values), using ampicillin as the reference antibiotic drug, are shown in Table 2 and Table 3. […]
assay endpoint: IZ (mm)
# output: bare number, implied unit mm

Send back B. subtilis (ATCC 6633) IZ (mm) of CC1=C(C(=O)OCc2ccccc2)C(c2ccc(C#N)cc2)C(C#N)=C(N)O1 (stereo not shown) [4k] only.
4.50

Send back B. subtilis (ATCC 6633) IZ (mm) of COC(=O)C1=C(C)OC(N)=C(C#N)C1c1ccccc1C(=O)O (stereo not shown) [4a] only.
5.20

Send back B. subtilis (ATCC 6633) IZ (mm) of CC1=C(C(=O)OCc2ccccc2)C(c2ccccc2Cl)C(C#N)=C(N)O1 (stereo not shown) [4l] only.
11.50

Send back B. subtilis (ATCC 6633) IZ (mm) of CC1(C)S[C@@H]2[C@H](NC(=O)[C@H](N)c3ccccc3)C(=O)N2[C@H]1C(=O)O [Ampicillin, reference compound] only.
25.50

====

Tested on: B. subtilis (ATCC 6633)
protocol notes: Antibacterial agar diffusion method (inhibition zone)
Type: cell-based
Returns one of fulfilled or not fulfilled; fulfilled when IZ (mm) is >= 20 mm.

Confirm if IZ (mm) reported for the compound CCOC(=O)C1=C(C)OC(N)=C(C#N)C1c1c(OC)cc(OC)cc1OC (stereo not drawn) [4h] is 20 mm or above.
not fulfilled

Confirm if IZ (mm) reported for the compound COc1cccc(C2C(C#N)=C(N)OC(C)=C2C(=O)OCc2ccccc2)c1[N+](=O)[O-] (stereo not drawn) [4c] is 20 mm or above.
not fulfilled

Confirm if IZ (mm) reported for the compound Cc1[nH]nc2c1C(c1cccc(O)c1Cl)C(C#N)=C(N)O2 (stereo not drawn) [5a] is 20 mm or above.
not fulfilled

Confirm if IZ (mm) reported for the compound COc1cc(C2C(C#N)=C(N)OC(C)=C2C(=O)OCc2ccccc2)cc(OC)c1OC (stereo not drawn) [4d] is 20 mm or above.
not fulfilled

Confirm if IZ (mm) reported for the compound CC1=C(C(=O)OCc2ccccc2)C(c2ccc(Cl)cc2Cl)C(C#N)=C(N)O1 (stereo not drawn) [4m] is 20 mm or above.
fulfilled

Confirm if IZ (mm) reported for the compound COc1cc(OC)c(C2C(C#N)=C(N)Oc3n[nH]c(C)c32)c(OC)c1 (stereo not drawn) [5b] is 20 mm or above.
not fulfilled

====

Tested on: E. coli (ATCC 25966)
protocol notes: Antibacterial agar diffusion method (inhibition zone)
Assay type: cell-based
experimental setup: E. coil (ATCC 25966)
Returns one of MET or NOT MET; MET when IZ (mm) is >= 6 mm.

Confirm if IZ (mm) reported for the compound COc1ccc(C2C(C#N)=C(N)OC(C)=C2C(=O)OCc2ccccc2)cc1 (stereo not shown) [4j] is 6 mm or above.
MET

Confirm if IZ (mm) reported for the compound COc1cc(OC)c(C2C(C#N)=C(N)Oc3n[nH]c(C)c32)c(OC)c1 (stereo not shown) [5b] is 6 mm or above.
NOT MET

Confirm if IZ (mm) reported for the compound CC1(C)S[C@@H]2[C@H](NC(=O)[C@H](N)c3ccccc3)C(=O)N2[C@H]1C(=O)O [Ampicillin, reference compound] is 6 mm or above.
MET

Confirm if IZ (mm) reported for the compound CC1=C(C(=O)OCc2ccccc2)C(c2ccc(Cl)cc2Cl)C(C#N)=C(N)O1 (stereo not shown) [4m] is 6 mm or above.
NOT MET

Confirm if IZ (mm) reported for the compound CCOC(=O)C1=C(C)OC(N)=C(C#N)C1c1c(OC)cc(OC)cc1OC (stereo not shown) [4h] is 6 mm or above.
NOT MET

Confirm if IZ (mm) reported for the compound COC(=O)C1=C(C)OC(N)=C(C#N)C1c1ccccc1C(=O)O (stereo not shown) [4a] is 6 mm or above.
NOT MET

Confirm if IZ (mm) reported for the compound CCOC(=O)C1=C(C)OC(N)=C(C#N)C1c1cccc(OC)c1[N+](=O)[O-] (stereo not shown) [4b] is 6 mm or above.
NOT MET

Confirm if IZ (mm) reported for the compound CCOC(=O)C1=C(C)OC(N)=C(C#N)C1c1cccc(O)c1Cl (stereo not shown) [4g] is 6 mm or above.
MET

Confirm if IZ (mm) reported for the compound CC1=C(C(=O)OCc2ccccc2)C(c2ccc(F)cc2)C(C#N)=C(N)O1 (stereo not shown) [4i] is 6 mm or above.
NOT MET

Confirm if IZ (mm) reported for the compound CC1=C(C(=O)OCc2ccccc2)C(c2ccc(C#N)cc2)C(C#N)=C(N)O1 (stereo not shown) [4k] is 6 mm or above.
NOT MET

Confirm if IZ (mm) reported for the compound COc1cc(C2C(C#N)=C(N)OC(C)=C2C(=O)OCc2ccccc2)cc(OC)c1OC (stereo not shown) [4d] is 6 mm or above.
NOT MET

Confirm if IZ (mm) reported for the compound COc1cccc(C2C(C#N)=C(N)OC(C)=C2C(=O)OCc2ccccc2)c1[N+](=O)[O-] (stereo not shown) [4c] is 6 mm or above.
NOT MET

Confirm if IZ (mm) reported for the compound CC1=C(C(=O)OCc2ccccc2)C(c2ccccc2Cl)C(C#N)=C(N)O1 (stereo not shown) [4l] is 6 mm or above.
NOT MET

Confirm if IZ (mm) reported for the compound Cc1[nH]nc2c1C(c1cccc(O)c1Cl)C(C#N)=C(N)O2 (stereo not shown) [5a] is 6 mm or above.
NOT MET

Confirm if IZ (mm) reported for the compound COC(=O)C1=C(C)OC(N)=C(C#N)C1c1cccc(O)c1Cl (stereo not shown) [4f] is 6 mm or above.
MET

Confirm if IZ (mm) reported for the compound CCOC(=O)C1=C(C)OC(N)=C(C#N)C1c1cccc(-c2ccccc2)c1 (stereo not shown) [4e] is 6 mm or above.
NOT MET

====

Test system: E. faecalis (ATCC 29122)
protocol notes: Antibacterial viability (CFU) assay, IC50
Type: cell-based
experimental setup: Enterococcus faecalis, ATCC29122
assay endpoint: pIC50
The meaning of pIC50 here: minus log10 of the concentration in molar units.

Give a short answer stating reported pIC50 for COC(=O)C1=C(C)OC(N)=C(C#N)C1c1cccc(O)c1Cl (stereo not shown) .
4.46

Give a short answer stating reported pIC50 for CCOC(=O)C1=C(C)OC(N)=C(C#N)C1c1c(OC)cc(OC)cc1OC (stereo not shown) .
4.34

Give a short answer stating reported pIC50 for CCOC(=O)C1=C(C)OC(N)=C(C#N)C1c1cccc(OC)c1[N+](=O)[O-] (stereo not shown) .
4.25

Give a short answer stating reported pIC50 for COC(=O)C1=C(C)OC(N)=C(C#N)C1c1ccccc1C(=O)O (stereo not shown) .
4.30

====

Test system: E. coli (ATCC 25966)
protocol notes: Antibacterial viability (CFU) assay, IC50
Assay type: cell-based
experimental setup: Escherichia coli, ATCC25966; E. coil (ATCC 25966)
Response field label takes 1 when IC50 is strictly below 90 µM and 0 in all other cases.

Please let me know if CCOC(=O)C1=C(C)OC(N)=C(C#N)C1c1c(OC)cc(OC)cc1OC (stereo not drawn) shows IC50 below 90 µM.
0

Please let me know if COC(=O)C1=C(C)OC(N)=C(C#N)C1c1ccccc1C(=O)O (stereo not drawn) shows IC50 below 90 µM.
0

Please let me know if CCOC(=O)C1=C(C)OC(N)=C(C#N)C1c1cccc(-c2ccccc2)c1 (stereo not drawn) shows IC50 below 90 µM.
0

Please let me know if COc1cc(OC)c(C2C(C#N)=C(N)Oc3n[nH]c(C)c32)c(OC)c1 (stereo not drawn) shows IC50 below 90 µM.
0

Please let me know if COc1ccc(C2C(C#N)=C(N)OC(C)=C2C(=O)OCc2ccccc2)cc1 (stereo not drawn) shows IC50 below 90 µM.
1

Please let me know if CC1=C(C(=O)OCc2ccccc2)C(c2ccc(C#N)cc2)C(C#N)=C(N)O1 (stereo not drawn) shows IC50 below 90 µM.
1

Please let me know if CCOC(=O)C1=C(C)OC(N)=C(C#N)C1c1cccc(O)c1Cl (stereo not drawn) shows IC50 below 90 µM.
1
